Target: Solute carrier organic anion transporter family member 1B3 (Homo sapiens, UniProt Q9NPD5)
Assay: Substrates of transporters of clinical importance in the absorption and disposition of drugs, OATP1B3
Format: ADME
readout.label: Activity

A selection of reference data follows.
molecule	experimental.value
CCCc1nc2c(C)cc(-c3nc4ccccc4n3C)cc2n1Cc1ccc(-c2ccccc2C(=O)O[C@@H]2O[C@H](C(=O)O)[C@@H](O)[C@H](O)[C@H]2O)cc1 [TELMISARTAN GLUCURONIDE]	transporter substrate
CSCC[C@H](NC(=O)[C@H](Cc1ccc(OS(=O)(=O)O)cc1)NC(=O)[C@@H](N)CC(=O)O)C(=O)NCC(=O)N[C@@H](Cc1c[nH]c2ccccc12)C(=O)N[C@@H](CCSC)C(=O)N[C@@H](CC(=O)O)C(=O)N[C@@H](Cc1ccccc1)C(N)=O [SINCALIDE]	transporter substrate
CCCCC(=O)N(Cc1ccc(-c2ccccc2-c2nnn[nH]2)cc1)[C@H](C(=O)O)C(C)C	transporter substrate
C[C@]12CC[C@@H]3c4ccc(O)cc4CC[C@H]3[C@@H]1CC[C@@H]2O[C@@H]1O[C@H](C(=O)O)[C@@H](O)[C@H](O)[C@H]1O [ESTRADIOL 17B GLUCURONIDE]	transporter substrate

Here is the next item to consider.
Problem: State the recorded Activity for this entry: CCCc1nc2c(C)cc(-c3nc4ccccc4n3C)cc2n1Cc1ccc(-c2ccccc2C(=O)O)cc1
Solution: transporter substrate

###

Molecular target: Solute carrier organic anion transporter family member 1A2 (Homo sapiens, UniProt P46721)
Sequence (P46721 whole entry): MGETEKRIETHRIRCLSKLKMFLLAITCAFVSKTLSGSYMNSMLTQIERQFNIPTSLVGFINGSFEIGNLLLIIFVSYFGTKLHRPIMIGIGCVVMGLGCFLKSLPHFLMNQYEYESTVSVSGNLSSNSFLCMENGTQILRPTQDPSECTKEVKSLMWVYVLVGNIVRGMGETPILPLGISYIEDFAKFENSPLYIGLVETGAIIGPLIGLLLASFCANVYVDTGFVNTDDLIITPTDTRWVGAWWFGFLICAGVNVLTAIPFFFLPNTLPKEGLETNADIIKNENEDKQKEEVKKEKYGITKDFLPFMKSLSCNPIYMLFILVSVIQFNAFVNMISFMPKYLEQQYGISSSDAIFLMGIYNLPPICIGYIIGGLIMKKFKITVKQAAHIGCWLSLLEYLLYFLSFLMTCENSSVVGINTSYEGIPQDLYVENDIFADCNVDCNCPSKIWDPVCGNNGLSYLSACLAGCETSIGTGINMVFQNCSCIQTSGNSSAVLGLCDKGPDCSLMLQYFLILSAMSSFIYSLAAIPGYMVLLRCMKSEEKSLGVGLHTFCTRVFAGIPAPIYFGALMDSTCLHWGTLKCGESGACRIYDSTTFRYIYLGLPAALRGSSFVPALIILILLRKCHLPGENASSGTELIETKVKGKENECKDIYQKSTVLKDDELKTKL
Assay: Substrates of transporters of clinical importance in the absorption and disposition of drugs, OATP1A2
Type: ADME
readout.label: Activity

compound	experimental.value
CC(C)(C(=O)O)c1ccc(C(O)CCCN2CCC(C(O)(c3ccccc3)c3ccccc3)CC2)cc1 (stereo not drawn) [FEXOFENADINE]	transporter substrate
O=C1OC(c2ccc(O)c(S(=O)(=O)[O-])c2)(c2ccc(O)c(S(=O)(=O)[O-])c2)c2c(Br)c(Br)c(Br)c(Br)c21.[Na+].[Na+] [SULFOBROMOPHTHALEIN SODIUM]	transporter substrate
C[C@]12CC[C@H](OS(=O)(=O)O)CC1=CC[C@@H]1[C@@H]2CC[C@]2(C)C(=O)CC[C@@H]12 [PRASTERONE SULFURIC ACID]	transporter substrate

###

Target: Solute carrier organic anion transporter family member 1B3 (Homo sapiens)
Sequence (Q9NPD5 whole entry): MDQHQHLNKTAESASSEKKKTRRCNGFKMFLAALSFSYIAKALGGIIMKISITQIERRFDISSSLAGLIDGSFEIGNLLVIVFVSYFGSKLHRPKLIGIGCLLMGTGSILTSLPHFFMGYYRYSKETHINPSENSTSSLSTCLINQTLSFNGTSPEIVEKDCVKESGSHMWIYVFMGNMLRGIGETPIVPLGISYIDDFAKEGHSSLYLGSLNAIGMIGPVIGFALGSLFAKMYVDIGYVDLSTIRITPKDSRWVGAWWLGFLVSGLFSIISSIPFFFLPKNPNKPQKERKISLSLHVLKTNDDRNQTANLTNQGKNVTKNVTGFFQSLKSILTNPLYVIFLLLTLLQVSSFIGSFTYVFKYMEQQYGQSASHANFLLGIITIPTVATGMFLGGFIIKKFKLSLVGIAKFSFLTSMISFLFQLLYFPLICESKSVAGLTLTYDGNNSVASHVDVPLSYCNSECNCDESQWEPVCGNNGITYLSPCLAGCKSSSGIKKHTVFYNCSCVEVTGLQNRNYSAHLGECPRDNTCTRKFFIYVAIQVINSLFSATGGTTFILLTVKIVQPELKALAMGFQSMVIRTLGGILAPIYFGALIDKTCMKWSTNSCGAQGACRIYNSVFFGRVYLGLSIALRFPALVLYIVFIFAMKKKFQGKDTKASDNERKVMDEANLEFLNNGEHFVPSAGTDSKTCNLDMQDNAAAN
Assay: Substrates of transporters of clinical importance in the absorption and disposition of drugs, OATP1B3
Format: ADME

molecule	Activity
CCCc1nc(C(C)(C)O)c(C(=O)O)n1Cc1ccc(-c2ccccc2-c2nnn[nH]2)cc1	transporter substrate
CC(C)(C(=O)O)c1ccc(C(O)CCCN2CCC(C(O)(c3ccccc3)c3ccccc3)CC2)cc1 (stereo not drawn) [FEXOFENADINE]	transporter substrate
O=C1OC(c2ccc(O)c(S(=O)(=O)[O-])c2)(c2ccc(O)c(S(=O)(=O)[O-])c2)c2c(Br)c(Br)c(Br)c(Br)c21.[Na+].[Na+] [SULFOBROMOPHTHALEIN SODIUM]	transporter substrate
